# systemName: Cyclin-dependent kinase 5/CDK5 activator 1 (Homo sapiens, UniProt Q00535)
# Sequence (Q00535 whole entry): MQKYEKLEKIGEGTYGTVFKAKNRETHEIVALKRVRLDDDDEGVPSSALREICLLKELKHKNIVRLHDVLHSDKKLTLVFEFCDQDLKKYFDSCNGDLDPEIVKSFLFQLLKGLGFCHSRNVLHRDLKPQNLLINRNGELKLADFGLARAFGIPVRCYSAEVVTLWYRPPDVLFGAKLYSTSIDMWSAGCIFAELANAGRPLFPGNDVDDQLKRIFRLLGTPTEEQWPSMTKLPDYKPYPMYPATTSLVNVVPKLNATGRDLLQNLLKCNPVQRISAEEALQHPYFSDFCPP
# Sequence (Q15078 whole entry, further chain): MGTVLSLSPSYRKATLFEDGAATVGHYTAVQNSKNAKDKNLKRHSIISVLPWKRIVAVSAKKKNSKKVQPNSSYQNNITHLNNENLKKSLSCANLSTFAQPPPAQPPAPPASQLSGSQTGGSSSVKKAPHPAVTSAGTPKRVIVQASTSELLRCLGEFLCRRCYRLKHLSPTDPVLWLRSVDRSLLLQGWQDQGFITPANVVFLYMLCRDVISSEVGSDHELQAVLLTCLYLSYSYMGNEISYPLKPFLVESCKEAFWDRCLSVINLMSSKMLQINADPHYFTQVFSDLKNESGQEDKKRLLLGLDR
# measurementProtocol: Inhibition of human cdk5/p25 by SPA
readoutLabel: IC50 (nM)
Numbers only, in nM.

Check out these entries, answers already filled in.
molecularString | measured
O=C(CSc1nnc(Cc2csc(NC(=O)c3ccccc3)n2)n1NC(=O)c1ccc(Cl)cc1)N/N=C/c1ccccc1 | 246
CC(=O)NNC(=O)CSc1nnc(Cc2csc(NC(=O)CCl)n2)n1NC(=O)c1ccc(Cl)cc1 | 464
COC(=O)CSc1nnc(Cc2csc(NCCC(=O)O)n2)n1NC(=O)c1ccccc1 | 648
CC(=O)Nc1nc(Cc2nnc(SCC(=O)N/N=C/c3ccccc3)n2NC(C)=O)cs1 | 463
CC(=O)NNC(=O)CSc1nnc(Cc2csc(NC(=O)c3ccccc3)n2)n1NC(=O)c1ccc(Cl)cc1 | 340

The following compounds each have a reported value; give each one's IC50.
1. CC(=O)NNC(=O)CSc1nnc(Cc2csc(NCCC(=O)O)n2)n1NC(=O)c1ccccc1
2. O=C(CCl)NNC(=O)CSc1nnc(Cc2csc(NC(=O)c3ccccc3)n2)n1NC(=O)c1ccc(Cl)cc1
3. COC(=O)CSc1nnc(Cc2csc(NC(=O)CCl)n2)n1NC(C)=O
4. CC(=O)Nc1nc(Cc2nnc(SCC(=O)NNC(=O)c3ccccc3)n2NC(C)=O)cs1

Result ::
1. 472
2. 340
3. 695
4. 436

Recorded values, source ChEMBL document CHEMBL1147182.
